assay: Inhibition of alpha-chymotrypsin
measure name: IC50
Numeric answer plus unit only.

(Q) Fill in the blank: the reported IC50 of CCCCCC(=O)N[C@H](CCc1ccc(O)cc1)C(=O)N[C@@H](CCc1ccc(O)cc1)C(=O)N[C@H](Cc1ccccc1)C(=O)O is ____.
(A) 10 µM
